Provenance of the data: the supplement of paper PMC9170038

test system: MS2 coat protein; assay: apparent KD of MS2 coat protein, switch OFF state (with FMN for OFF switches, without FMN for ON switches); designed switch direction (-1 OFF switch, 1 ON switch): 1; higher = weaker reporter binding; settings: FMN input: 0 or 200 uM; Eterna round: R93 (includes R88 designs)
endpoint.name: apparent KD of MS2 coat protein (nM)

- sequence.data: "AUAUAUAUAAGGUAGGAUAUCCAAAAAUAAACAUGAGGAUCACCCAUGUCCAUAAAGAAUAAAUGGGAGAAGGACCAUAUAUAUA [viburnum 9]"
  endpoint.name: "apparent KD of MS2 coat protein"
  endpoint.unit: "nM"
  result: 48.6
- sequence.data: "AAAACACAUGAGGAUCACCCAUGUAGAAAUACGGGAGGAUAUGCUAAAACGAAAGACAAUGUAGAAGGCCUAAAAG [saturn 10]"
  endpoint.name: "apparent KD of MS2 coat protein"
  endpoint.unit: "nM"
  result: 59.6
- sequence.data: "UUAUUACAUGAGGAUCACCCAUGUUUAGUGGUGACAGGAUAUACGAAAAAAAAAAAAAAAGUAGAAGGGUCUUAUU [SS 1.1]"
  endpoint.name: "apparent KD of MS2 coat protein"
  endpoint.unit: "nM"
  result: 50.5
- sequence.data: "GAGGACAUAGUACAGGAUAUAUGAAUAGUUACAUGAGGAUCACCCAUGUGCAUUUAUAUGCGAACAUAGAAGGGUGGUAGUUAUC [SameState2 Malc#30]"
  endpoint.name: "apparent KD of MS2 coat protein"
  endpoint.unit: "nM"
  result: 68.9
- sequence.data: "AAAAGACAUGAGGAUCACCCAUGUAAAGACGUGGGAGGAUAUGUAUGGAAACCAGACUGUACAGAAGGCCUCUGUC [SS1 - 72]"
  endpoint.name: "apparent KD of MS2 coat protein"
  endpoint.unit: "nM"
  result: 243
- sequence.data: "AAAAAAAAAGUCGAGGAUAUCCACAUGGCUACAUGAGGAUCACCCAUGUGAAGAAAAGCACAUGAGGAGAAGGCGACAAAAAAAAA [Tightrope]"
  endpoint.name: "apparent KD of MS2 coat protein"
  endpoint.unit: "nM"
  result: 24.5

* * *

Listed next: entries and their corresponding apparent KD of K4 kissing-loop reporter.
test system: K4 kissing-loop RNA reporter; experiment: apparent KD of K4 kissing-loop reporter; higher = weaker reporter binding; settings: Eterna round: R107; input ligand: arginine 13.2 mM;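 also: bound reporter read as fluorescence of individual clusters on recovered sequencing chips by microscopy, with normalized cluster intensities fitted with a binding model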
endpoint.name: apparent KD of K4 kissing-loop reporter (µM)

- sequence.data: "AAUUUAUAUUUAUUCUUUAAUUGUUCAGAAGGAGCGUGAAUUAUCACAGGUAGGUCGCUGAGCUAGUGAUGUUAGCUAUAUACUA [JR_ExcArginiA_Sub008]"
  endpoint.name: "apparent KD of K4 kissing-loop reporter"
  result: 0.105
- sequence.data: "GUUACGCAUGGAAGGAGCGCAGGCUCAACAAAUAGCUCAGUGAUGUUGAGCAUAUUAAAUCUGCAGGUAGGUCGCCAUGUGUAAC [Ex Arginine B K4 24]"
  endpoint.name: "apparent KD of K4 kissing-loop reporter"
  result: 0.5
- sequence.data: "UACUAACGUUAAGGAUAUGCGUCGAUUACCGGUAAGUGAUGUUUAGCGCCCGGGCAACGGUGGGUCGCAGAAGGUAAACACAGUU [theeternabot_sameState_KL_FMN_B_19]"
  endpoint.name: "apparent KD of K4 kissing-loop reporter"
  result: 0.551
- sequence.data: "GCAGGACGAGGAGGAGGAUGAAUUACUGAAGGAGCGCAUAUUUUUGCAGGUAGGUCGCGGUAAACAAGUAUAGUGAUGUUAUAUC [SSArgA.N]"
  endpoint.name: "apparent KD of K4 kissing-loop reporter"
  result: 0.234
- sequence.data: "UGGAGUUGACGAAAAGUCAACUCCUGAGAUACCAGUGACGAAAGUCACCCUUGGCAGCUCACUGGCAGUGAUGUUGCGCGAUAAA [#23 K4 Theophylline A Same State]"
  endpoint.name: "apparent KD of K4 kissing-loop reporter"
  result: 0.288
- sequence.data: "AAGUGUGUGGCGGCCGCCACUAGAAUCCAGUGAUGUUGGAGAUAUCAUGUAAAUGAUAUCCAACAUAGGACCGGGCCAUAUAGAA [Same State - Tryptophan B (Freestyle 10)]"
  endpoint.name: "apparent KD of K4 kissing-loop reporter"
  result: 0.098
- sequence.data: "GCCGUAGAUUGAAGGAGCGUGGAACUAUGGCUUGAACAGUGAUGUUGUUUAUCUAGGUAGCCGCAGGUAGGUCGCAAUCUACGGC"
  endpoint.name: "apparent KD of K4 kissing-loop reporter"
  result: 0.25
- sequence.data: "UGCAGUGAUGUUGCUAUUUUUCUUGAUUAACGAGGACCGGUACGGCCGCCACUCGAUUUCUCUCUAGUCCAGUAUGUUGUUUGAU [whbob_EX_Tryp_A_t5]"
  endpoint.name: "apparent KD of K4 kissing-loop reporter"
  result: 0.124
- sequence.data: "GGUGACAGCCAGGAGUGAUGUAUAGAAUAGCGAGGACCGGUACGGCCGCCACUCGUGAAGAGAAAGGAGUGAUGUUCCGUAAUGG [Kazoo C2]"
  endpoint.name: "apparent KD of K4 kissing-loop reporter"
  result: 0.178
- sequence.data: "GUUACGCAUGGAAGGAGCGCACUCCGAUUGGUCGACACAGUGAUGUUGUGGUUCGUUCGAAUGCAGGUAGGUCGCCAUGUGUAAC [Ex Arginine B K4 18]"
  endpoint.name: "apparent KD of K4 kissing-loop reporter"
  result: 0.143
- sequence.data: "AAGCAGUCCCUCGAAGCCAUCGAAGAUGGGCGAGGACCGGUACGGCCGCCACUCGGAGUGAUGUUCCGAAGACUGCAAAAUAAAA [MatMod 3 - Jieux - Exclusion - Tryptophan A]"
  endpoint.name: "apparent KD of K4 kissing-loop reporter"
  result: 0.316
- sequence.data: "CCACCUCCAGAAGGAUAUAGUGUAUCAGAUUCACUCGAGUGCCUUAAACUAAGGAGUGAUGUUCCGCUAGAAGGUCUCGUAGGCA [theeternabot_exclusion_KL_FMN_B_45]"
  endpoint.name: "apparent KD of K4 kissing-loop reporter"
  result: 0.145
